Target: T1, human serum albumin (human, UniProt P02768 25-609)
T1 construct: also called HSA
Test: SPR (Biacore), VHH clone, pH 5.5
The label depends only on koff: Met if it is at least 0.001 s⁻¹, Not met if it is smaller.

Worked examples, 5 binders total:
[
  {
    "binder": "1E04 (VHH) VHH: QLQLVESGGGLVQTGGSLRLSCAASGRTFSNYNAGWFRQVPGKEPEFVAAINWSGGTTYYADSVKGRFTISRDNAKNTVYLQMNSLKPEDTAVYYCAADPDWSILNPREYDYWGQGTRVTVSS",
    "assigned category": "Met"
  },
  {
    "binder": "2A10 (VHH) VHH: EVQLVESGGGLVQAGGSLRLSCAASGRTFSSYAMGWFRQAPGKEREFVATINWSGGSTYYADSVKGRFTISRDNAKNTVYLQMNSLKPEDTAVYYCAADLYGPGFVLSMEYDYWGQGTQVTVSS",
    "assigned category": "Met"
  },
  {
    "binder": "12G03 (VHH) VHH: QVQLVESGGGLVQAGGSLRLSCAASERAFSHSNMAWFRQAPGKEREFVAHIHWRGSTTYLDSVKGRFTISRDNAKNTVYLQMNGLRLEDTAVYYCAADSARRILVTVSTSYDYWGQGTQVTVSS",
    "assigned category": "Met"
  },
  {
    "binder": "11C03 (VHH, also called 11C03 parental (VHH)) VHH: QLQVVESGGGLVQAGGSLRLSCAASERTFVAYPMGWFRQAPEKEREFVAGISWFAGATTDYADSVEGRFTISRDNAKNTAYLQMNNLKPEDTAVYYCAISHQLPGGRPGRDMDSYSYWGHGTQVTVSS",
    "assigned category": "Not met"
  },
  {
    "binder": "2H11 (VHH, also called 2H11 parental (VHH)) VHH: ELQVVESGGGLVQAGGSLRLSCAASGRTFRSNTMGWFRQAPGKEREFVAAITWSGGTTYYADSVKGRFAISGDNAKNTVYLQMNSLKPEDTAVYYCAAEGPKWEPWNGIYHPADFGSWGQGTQVTVSS",
    "assigned category": "Not met"
  }
]

Check if koff >= 0.001 s⁻¹ (inclusive). Item: 9F02 (VHH) VHH: EVQLVESGGGLVQAGGSLRLSCTASRRAFIGYAMGWFRQAPGKEREFVAAISWFAGDTTDYADSVKGRFTISRDNAKNTVYLQMNGLKPEDTAVYVCAASSARPMSGRSDEYHYWGQGTQVTVSS
Not met
